subjectOfTest: KRAS G12V (Homo sapiens, UniProt P01116+P62937, G12V)
Sequence (P01116 1-169 isoform P01116-2 G12V limits assumed): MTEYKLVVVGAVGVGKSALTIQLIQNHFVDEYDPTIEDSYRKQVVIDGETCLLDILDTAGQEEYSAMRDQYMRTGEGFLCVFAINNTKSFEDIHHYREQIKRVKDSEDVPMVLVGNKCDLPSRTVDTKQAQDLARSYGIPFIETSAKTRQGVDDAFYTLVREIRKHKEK
Sequence (P62937 whole entry): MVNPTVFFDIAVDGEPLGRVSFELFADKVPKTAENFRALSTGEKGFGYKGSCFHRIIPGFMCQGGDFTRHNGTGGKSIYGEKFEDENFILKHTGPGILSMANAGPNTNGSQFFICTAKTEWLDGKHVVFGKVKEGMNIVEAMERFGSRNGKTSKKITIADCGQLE
testSummary: Disruption of BRAF RBD interaction with Ras (FRET / MOA assay, with Cyclophilin A)
Assay type: biochemical
testConditions: KRAS G12V; read-out: KRAS G12V FRET data IC50
experimentalEndpoint: IC50

Fill in IC50 for CCn1c(-c2cccnc2[C@H](C)OC)c2c3cc(ccc31)-c1csc(n1)C[C@H](NC(=O)[C@H](C(C)C)N(C)C(=O)N1CC[C@@]3(CCN(C)C3=O)C1)C(=O)N1CCC[C@H](N1)C(=O)OCC(C)(C)C2 (single isomer, unassigned) [Example A495] tested with KRAS G12V (Homo sapiens, UniProt P01116+P62937, G12V). 0.1 to 1 µM

Fill in IC50 for CCn1c(-c2cccnc2[C@H](C)OC)c2c3cc(ccc31)-c1cc(O)cc(c1)C[C@H](NC(=O)[C@H](C(C)C)N(C)C(=O)C1CNC1)C(=O)N1CCC[C@H](N1)C(=O)OCC(C)(C)C2 [Example A125] tested with KRAS G12V (Homo sapiens, UniProt P01116+P62937, G12V). 0.1 to 1 µM

Fill in IC50 for CCn1c(-c2cccnc2[C@H](C)OC)c2c3cc(ccc31)-c1csc(n1)C[C@H](NC(=O)[C@H](C(C)C)N(C)C(=O)[C@@H]1OCC[C@@H]1C)C(=O)N1CCC[C@H](N1)C(=O)OCC(C)(C)C2 [Example A143] tested with KRAS G12V (Homo sapiens, UniProt P01116+P62937, G12V). 1 to 10 µM

Fill in IC50 for CCn1c(-c2cccnc2[C@H](C)OC)c2c3cc(ccc31)-c1csc(n1)C[C@H](NC(=O)[C@H](C(C)C)N(C)C(=O)N(C)C)C(=O)N1CCC[C@H](N1)C(=O)OCC(C)(C)C2 (racemic) [Example A136] tested with KRAS G12V (Homo sapiens, UniProt P01116+P62937, G12V). 0.1 to 1 µM

----------
subjectOfTest: NRAS G12C (Homo sapiens, UniProt P01111+P62937, G12C)
Sequence (P01111 whole entry G12C): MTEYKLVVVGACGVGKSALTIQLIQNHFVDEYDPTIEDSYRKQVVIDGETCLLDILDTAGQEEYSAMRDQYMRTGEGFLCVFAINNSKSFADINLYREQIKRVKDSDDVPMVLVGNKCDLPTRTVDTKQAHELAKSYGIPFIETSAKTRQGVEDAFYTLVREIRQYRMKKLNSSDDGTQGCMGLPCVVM
Sequence (P62937 whole entry): as the sequence (P62937 whole entry) above
testSummary: Ras-Raf disruption / FRET / MOA assay (BRAF RBD)
Assay type: biochemical
testConditions: NRAS G12C FRET data IC50, NRAS G12C
pIC50: −log10 of the molar value.
experimentalEndpoint: pIC50

Return reported pIC50. Input compound: `CCn1c(-c2cccnc2[C@H](C)OC)c2c3cc(ccc31)-c1cc(O)cc(c1)C[C@H](NC(=O)[C@H](C(C)C)N(C)C(=O)CN(C)C(=O)[C@@H]1N[C@@H]1C1COC1)C(=O)N1CCC[C@H](N1)C(=O)OCC(C)(C)C2` > 8.00

Return reported pIC50. Input compound: `CC[C@H]1N[C@H]1C(=O)N(C)CC(=O)N(C)[C@H](C(=O)N[C@H]1Cc2cc(O)cc(c2)-c2ccc3c(c2)c(c(-c2cccnc2[C@H](C)OC)n3CC)CC(C)(C)COC(=O)[C@@H]2CCCN(N2)C1=O)C(C)C` 7.00 to 8.00

Return reported pIC50. Input compound: `CCn1c(-c2cccnc2[C@H](C)OC)c2c3cc(ccc31)-c1cc(O)cc(c1)C[C@H](NC(=O)[C@H](C(C)C)N(C)C(=O)CNC(=O)[C@@H]1N[C@@H]1C1CC1)C(=O)N1CCC[C@H](N1)C(=O)OCC(C)(C)C2` 7.00 to 8.00
